Provide the reported log10(Ki) of each item.
- target-of-assay: Glutamate receptor ionotropic, AMPA (Rattus norvegicus, UniProt P19490+P19491+P19492+P19493)
- test-method-notes: biochemical
- Description: Binding affinity for ionotropic glutamate receptor AMPA using [3H]AMPA as radioligand, bound to synaptic membranes prepared from rat cerebral cortex
In our notation, the value equals log10 of Ki in nM.

Check out these entries, answers already filled in.
1. CN(C)c1cc2nc(C(=O)O)c(O)nc2cc1[N+](=O)[O-] ... 2.96
2. O=C(NCc1ccccc1)OCc1cn(-c2cc3nc(C(=O)O)c(=O)[nH]c3cc2[N+](=O)[O-])cn1 ... 1.83
3. O=C(Nc1ccc(Br)cc1)OCc1cn(-c2cc3nc(C(=O)O)c(=O)[nH]c3cc2[N+](=O)[O-])cn1 ... 1.51
4. O=C(Nc1ccc(Cl)cc1)OCc1cn(-c2cc3nc(C(=O)O)c(O)nc3cc2[N+](=O)[O-])cn1 ... 1.48

Input `O=C(Nc1ccccc1Cl)OCc1cn(-c2cc3nc(C(=O)O)c(O)nc3cc2[N+](=O)[O-])cn1` . Output log10(Ki): 1.30

###

- target-of-assay: Glutamate receptor ionotropic, AMPA (Rattus norvegicus, UniProt P19490+P19491+P19492+P19493)
- test-method-notes: biochemical
value-type: pKi
Numbers only, as −log10 of the molar value.

Check out these entries, answers already filled in.
1. Cc1ccc(NC(=O)OCc2cn(-c3cc4nc(C(=O)O)c(O)nc4cc3[N+](=O)[O-])cn2)cc1 ... 7.52
2. O=C(O)c1nc2cc(N3CCCCC3)c([N+](=O)[O-])cc2nc1O ... 5.42

Input `O=C(NCc1cccc(Br)c1)OCc1cn(-c2cc3nc(C(=O)O)c(O)nc3cc2[N+](=O)[O-])cn1` . Output pKi: 7.00

###

- target-of-assay: Glutamate receptor ionotropic, AMPA (Rattus norvegicus, UniProt P19490+P19491+P19492+P19493)
- test-method-notes: biochemical
Provide the reported Ki of each item.
One number for each entry, in nM.

1) O=c1[nH]c2cc(-n3ccnc3)c([N+](=O)[O-])cc2[nH]c1=O [YM-90K] ... 100
2) O=C(Nc1cccc(C(=O)O)c1)OCc1cn(-c2cc3nc(C(=O)O)c(O)nc3cc2[N+](=O)[O-])cn1 ... 27
3) O=C(O)c1nc2cc(-n3cnc(CO)c3)c([N+](=O)[O-])cc2[nH]c1=O ... 2600
4) Cc1ccccc1NC(=O)OCc1cn(-c2cc3nc(C(=O)O)c(O)nc3cc2[N+](=O)[O-])cn1 ... 16
5) O=C(O)c1nc2cc(-n3ccc(=O)cc3)c([N+](=O)[O-])cc2nc1O ... 330
6) O=C(O)c1nc2cc(N3CCOCC3)c([N+](=O)[O-])cc2nc1O ... 2000
7) O=C(Nc1ccc(C(=O)O)cc1)OCCc1cn(-c2cc3nc(C(=O)O)c(=O)[nH]c3cc2[N+](=O)[O-])cn1 ... 270
8) O=C(NCc1ccc(Br)cc1)OCc1cn(-c2cc3nc(C(=O)O)c(O)nc3cc2[N+](=O)[O-])cn1 ... 47

Here is the next item to consider.
Input `O=C(O)Cn1c(=O)c(=O)[nH]c2cc([N+](=O)[O-])c(-n3ccnc3)cc21` . Output Ki: 62

###

- target-of-assay: Glutamate receptor ionotropic, AMPA (Rattus norvegicus, UniProt P19490+P19491+P19492+P19493)
- test-method-notes: biochemical
Label True when Ki is strictly below 0.2 µM; at or above that, label False.

Past entries and their recorded results:
1) O=C(O)c1nc2cc(N3CCC(O)CC3)c([N+](=O)[O-])cc2nc1O ... False
2) O=C(Nc1cccc(Br)c1)OCc1cn(-c2cc3nc(C(=O)O)c(O)nc3cc2[N+](=O)[O-])cn1 ... True

Please let me know if `Cc1cccc(NC(=O)OCc2cn(-c3cc4nc(C(=O)O)c(O)nc4cc3[N+](=O)[O-])cn2)c1` shows Ki below 0.2 µM.
True

Please let me know if `O=C(Nc1ccccc1)OCc1cn(-c2cc3nc(C(=O)O)c(O)nc3cc2[N+](=O)[O-])ccc1=O` shows Ki below 0.2 µM.
True

Please let me know if `O=C(O)c1nc2cc(-n3ccnc3)c([N+](=O)[O-])cc2[nH]c1=O` shows Ki below 0.2 µM.
False

###

- target-of-assay: Glutamate receptor ionotropic, AMPA (Rattus norvegicus, UniProt P19490+P19491+P19492+P19493)
- test-method-notes: biochemical
value-type: pKi
One number for each entry, as −log10 of the molar value.

1. O=C(O)Cc1cn(-c2cc3nc(C(=O)O)c(O)nc3cc2[N+](=O)[O-])cn1 ... 6.28
2. O=C(O)c1nc2cc(F)c([N+](=O)[O-])cc2nc1O ... 5.70
3. O=C(Nc1cccc(Cl)c1)OCc1cn(-c2cc3nc(C(=O)O)c(O)nc3cc2[N+](=O)[O-])cn1 ... 7.74
4. O=C(Nc1ccccc1Br)OCc1cn(-c2cc3nc(C(=O)O)c(O)nc3cc2[N+](=O)[O-])cn1 ... 7.52

Here is the next item to consider.
Input `O=C(NCc1ccccc1Br)OCc1cn(-c2cc3nc(C(=O)O)c(O)nc3cc2[N+](=O)[O-])cn1` . Output pKi: 7.54

###

- target-of-assay: Glutamate receptor ionotropic, AMPA (Rattus norvegicus, UniProt P19490+P19491+P19492+P19493)
- test-method-notes: biochemical
Provide the reported pKi of each item.
Answers are plain numbers, as −log10 of the molar value.

1) Cc1cn(-c2cc3nc(C(=O)O)c(O)nc3cc2[N+](=O)[O-])cn1 ... 5.89

Return reported pKi values for all items listed beneath this line.
1. O=C(Nc1ccc(C(=O)O)cc1)OCc1cn(-c2cc3nc(C(=O)O)c(=O)[nH]c3cc2[N+](=O)[O-])cn1
2. O=C(Nc1ccccc1)OCc1cn(-c2cc3nc(C(=O)O)c(O)nc3cc2[N+](=O)[O-])cn1

[7.66, 7.07]
